Where these numbers come from: PubChem BioAssay (Tox21)

Experiment: qHTS assay for identifying genotoxic compounds that show differential cytotoxicity against isogenic chicken DT40 cell lines with known DNA damage response pathways - Rad54/Ku70 mutant cell line (AID 743015); note: nearly all actives have a fitted effect of over 60% in size
Details: DT40 Rad54/Ku70 mutant viability, CellTiter-Glo, 40 h; series mostly up to 66.8 µM
Results filed as inconclusive are left out. Active and inactive are the calls of the source. Calls come from the whole dose curve; as a rule, active = well fitted cell-killing curve with a large enough effect in the repeat runs; inconclusive = weak or mixed curves; inactive = no such curve, though single readings can be large or run the other way.
The reply should be one of these categories: y = active, n = inactive

Below are worked cases with known answers.
molecule: Nc1nc(N)c(-c2ccccc2)s1
category: n

molecule: CCCCC(CC)(CO)CO
category: n

Pending molecule:
Task: Give the logged outcome of this assay for the following molecule: c1ccc(CNCc2ccccc2)cc1
Output: y
